system: MS2 coat protein; assay: apparent KD of MS2 coat protein; designed switch direction (-1 OFF switch, 1 ON switch): 1; higher = weaker reporter binding; conditions: input ligand: microRNA oligo, concentration not stated
So I've got a bunch of sequences here, and I need their apparent KD of MS2 coat protein values.
One number for each entry, in nM.

Some sequences with known apparent KD of MS2 coat protein results, for comparison:
>>> datavalue("GUAGCAUACCGAGGAUAUUCAUAUAAUACAUGAGGAUCACCCAUGUUAAAUAGGCGAAAGCCUUGGGAGAAGGCGGAAUGCUAC [Xeonanis - 20 Mod66] (Eterna round: R96, puzzle: Same State NG 2)")
13
>>> datavalue("CGCGAACAGGCAGGAUAUAUAGAGCCAAAUAUUGUAGAAGGGCCACGUGCGGGAAGAGAACACAUGAGGAUCACCCAUGUUCGA [Eternabot solution 5] (Eterna round: R96, puzzle: Same State NG 1)")
27.9
>>> datavalue("GGUGGGUUGCUGCCGGCACAUGAGGAUCACCCAUGUUUUGGGAAGGAUAUGGUCCCUCUUUGGUGCCAGAAGGUCCCGUUGGUG [salish99_SSNG3_r04_714] (Eterna round: R96, puzzle: Same State NG 3)")
402
>>> datavalue("AUUACUAGCAUAGGAUAUCAUGCGAAAAUUGCGUGAGAAGGGUGGACGCUGUCAUUCACGGAAGACAUGAGGAUCACCCAUGUC [SameState NG1 #74] (Eterna round: R96, puzzle: Same State NG 1)")
68.5

Query sequence follows.
Query: Param readout = apparent KD of MS2 coat protein; param system = MS2 coat protein; param query = GUGGUCAGACAUGAGGAUCACCCAUGUGGAAUAAAUAAGGGACAGGAUAUGGAAUAUAGGAUAUACCAGAAGGGUUGGUUGGUG (Eterna round: R96, puzzle: Same State NG 3) ; response: value
Response: 68.7

###

system: MS2 coat protein; test: apparent KD of MS2 coat protein; designed switch direction (-1 OFF switch, 1 ON switch): -1; higher = weaker reporter binding; conditions: Eterna round: R95; input ligand: microRNA oligo, concentration not stated
metricName: apparent KD of MS2 coat protein

>>> datavalue("UAAUAAAGUGUGAGGAUAUGCUGGUCGAUAGAUCAGCAGAAGGCACAUGAGGAUCACCCAUGUAAUAUAUUUUA [Mat - Exclusion 4 - JL Mod - D46] (puzzle: Brourd's mod of Exclusion 4)")
"54.3 nM"

Field: apparent KD of MS2 coat protein. Fill in for each record below.
1. GAUCAACAUGAGGAUCACCCAUGUCAGGAUAUGAUACUAUGUACUUCGGUACAUAGUAUCAGAAGGGACAGAUC [Ex1-3: 1] (puzzle: Exclusion 1)
2. ACAAGCUCUUUGCAACUUAGUUUUGUUGCUUCGUAGGUAACAUGAGGAUCACCCAUGUAAGACUGAUGUCGUCUUAU [JR_SV3TOV2_Sub086] (puzzle: Sensor v3, turn-off variant 2)
3. CUUUUGUGAGGAUAUUAGUAGUAAAUAAAUAAAAUUACUAUUGAGAAGGCACAUGAGGAUCACCCAUGUUCCUC [salish99_ex4_r3_064] (puzzle: Exclusion 4)
4. AAGAAACAUGAGGAUCACCCAUGUGAGGAUAUGAAAAAGAAAAUAAAAUAAAUAAGAAUCAGAAGGCACAAAGG [Mat - Mod of Hog D5] (puzzle: Exclusion 1)

Response:
["101 nM", "21.4 nM", "30.3 nM", "45.5 nM"]

###

Would you kindly list apparent KD of MS2 coat protein for each of these sequences?
tested on: MS2 coat protein; assay: apparent KD of MS2 coat protein; higher = weaker reporter binding; settings: Eterna round: R107; input ligand: arginine 13.2 mM
Numbers only, in nM.

Here are 3 sequences together with their reported answers.
>>> datavalue("UUGGAUGAAGGAGUGAAAAGCAACUCAGAUACCAGUCUGAGUAAUGACCCUUGGCAGCUGAGAACAUGAGGAUCACCCAUGUGAC [theeternabot_exclusion_MS2_Theo_A_34]")
11.7
>>> datavalue("UGUAUGGACUGAAGGAGCGGGAAAAUAAGAUGAGGAUCACCCAUCUAAAAGGCGAAAGCCACCCAGGUAGGUCGCAGUCCAUACU")
27.7
>>> datavalue("AACAUACAUGAGGAUCACCCAUGUCACGAUACCAGAUACAUGAGGAUCCCUUGGCAGCGUCAUGAGGAUCACCCAUGUUGUACAU [Exclusion Theophylline A 2]")
20.3

For every item below, please supply its apparent KD of MS2 coat protein.
1. AAAGGCGGGCAGGAUACCAGCGCUAACAUGAGGAUCACCCAUGUACAAAUAAUAACAUGGUGCCCUUGGCAGCCUGGGCGUCUGC [Usedlati]
2. UCGGGCAGAGCGGCCGCCACUGUUUGGCGUGCGGAUGAAGGAACAUGAGGAUCACCCAUGUAGAUUAGGACCGGGCUUGCGGAGA [ddrmullin]
3. UGGCGAGAAGGAAGGAGCGUCAGCUGAGUCACAUGAGGAUCACCCAUGUCGCACAUAGUGUGACAGGUAGGUCGCCUUCUGCCCU [Beinmain]

Response:
1: 26.6; 2: 8.61; 3: 84.9

###

tested on: MS2 coat protein; assay: apparent KD of MS2 coat protein, switch ON state; designed switch direction (-1 OFF switch, 1 ON switch): -1; higher = weaker reporter binding; conditions: FMN input: 0 or 200 uM; Eterna round: R93 (includes R88 designs)
Exercise: for every item that follows, state its recorded apparent KD of MS2 coat protein.
Give bare numbers, in nM.

>>> datavalue("AACUAACAUGAGGAUCACCCAUGUCAGGAUAUGCAAAGAUCGAUCGAACGAUCGAUAAGCAGAAGGGACAAAAA [Amethyst 95]")
23.3
>>> datavalue("GUAAACCUAGGAUAUACAUGAGGAUCACCCAUGUAAAAAUUAAUAAAAAGAAAAACAAGUAGAAGGAGGUAGAU [JR_Exc003_Sub1225]")
19.6
>>> datavalue("CUAAAGCGAGGAUAUACAAUAAAAGGGAAUAAGGGAAAAAAACAUGAGGAUCACCCAUGUAGAAGGCGCCGAAA [Ex 2 #1]")
25.6

Below is a list of sequences. For each, state its recorded apparent KD of MS2 coat protein.
1. UCCUGACAUGAGGAUCACCCAUGUCAGGAUAUGCAUCUUAGGAAAAAAAAACUAAGAUGCAGAAGGGACAUGGG [Design 1: Super Stable]
2. AAAAGGUGAGGAUAUUCGAAAAUAAAAGAAAAUAAAAGAAAGAAGAAGGCACAUGAGGAUCACCCAUGUAAUAA [LROPPY Exclusion 4 - v02_deltaG=2.94 break up the As mixed]
3. CAUAGGCGAGGAUAUACAUGAGGAUCACCCAUGUAAGGAAACCUGGCAGACUCAGAAUGUAGAAGGCGCACUGA [Ex3_Neo]
4. AAAACGUGAGGAUAUGCACCAAAAAAGGUAUUUCGGGUACGACAUGAGGAUCACCCAUGUAGAAGGCACGAAAA [Frodo Flailing 13 - Jieux - Exclusion 2]

Response:
1. 26.9
2. 30.1
3. 17.1
4. 22.8

###

Would you mind telling me the reported apparent KD of MS2 coat protein of each entry?
tested on: MS2 coat protein; assay: apparent KD of MS2 coat protein; designed switch direction (-1 OFF switch, 1 ON switch): 1; higher = weaker reporter binding; conditions: Eterna round: R95; input ligand: FMN 200 uM
Give bare numbers, in nM.

Worked set:
>>> datavalue("UACCAUAGUAUAUUGGUGCAAGCUUUUUGACAUGAGGAUCACCCAUGUACUCGUCUUAUGUGCAGUCCGUAGACUGC [JL-shm-2.22 Brourd mod] (puzzle: Sensor for hsa-mir-208a)")
57.8
>>> datavalue("AUAUAACAUGAGGAUCACCCAUGUCUCUAAAGUCGAGGAUAUGGGCAGGUUAUAUCCGAACCAGAAGGCGGGUUAU [SS1 Teenbexe 8] (puzzle: Same State 1)")
177

Now for another entry.
Query: Name the recorded apparent KD of MS2 coat protein for CGUCCAGCCUGAGCUGGACAAAAGCAUGUACAUGAGGAUCACCCAUGUUCAUGUACAAGCUUUUUGCUCGUCUUAGC [salish99_208a_r3_075] (puzzle: Sensor for hsa-mir-208a) .
Response: 730

###

Answer each item with its documented apparent KD of MS2 coat protein.
tested on: MS2 coat protein; assay: apparent KD of MS2 coat protein; higher = weaker reporter binding; conditions: Eterna round: R107; input ligand: theophylline 20 uM
Answers are plain numbers, in nM.

Completed entries (count: 2):
>>> datavalue("UUGGAUGAAGGAGUGAAAAGCAACUCAGAUACCAGUCUGAGUAAUGACCCUUGGCAGCUGAGAACAUGAGGAUCACCCAUGUGAC [theeternabot_exclusion_MS2_Theo_A_34]")
15.5
>>> datavalue("GGAUAGGACGGAAGGAGCGACGUGAGGCUAAUGUCCAGUCUUCUACAUGAGGAUCACCCAUGUCAGGUAGGUCGCCGUCCUAUCG [#21 Exclusion - Arginine B]")
51.7

Provide the reported apparent KD of MS2 coat protein of each entry below, same order.
1. AACGCGGUGAUGGUAGCCGGACGCUAGGUACGAGGACCGGUACGGCCGCCACUCGGAGUCCUACGACAUGAGGAUCACCCAUGUA [Same State Trp A GF15]
2. AUGUCGUUGAAUACAGCGGCAUGGAGUGAUACCAGAAUGAUCAAAUUCCCUUGGCAGCAUGACAUGAGGAUCACCCAUGUUCGAU [SSTheo A #15]
3. UACUUGCUGACGGCCGCCACUAGAACAUGAGGAUCACCCAUGUAUUCUAGUCGUCAUGGGUGGACUAGGACCGGGUCAGCAAGAU [(Trp1)-(Ms2)-(T)'-(M)'-(Trp2)_Design8]
4. ACAUGAGGAUCACCCAUGUUCCUCAUUGAUACCAGUGAAUUUAGACGCCCUUGGCAGCGAGUUUAAGAAGAAGAAGUUUUUUUUU [6.C]
5. AAAGGCGGGCAGGAUACCAGCGCUAACAUGAGGAUCACCCAUGUACAAAUAAUAACAUGGUGCCCUUGGCAGCCUGGGCGUCUGC [Usedlati]
6. CGAUGAUCGAGGGAUACCAGAAAUGGUAUUCCUUUAUUUCUUACAUGAGGAUCACCCAUGUUCCCUUGGCAGCUUUUGAUCAUCG [ETHB #7]
7. GUAUGGAAACAUACUAGGGUAUCGUGAGAUACCAGUACAGAAAUGUACCCUUGGCAGCUCGCGCAUACAUGAGGAUCACCCAUGU [Ex Theophylline A 9]
8. AACAUACAUGAGGAUCACCCAUGUCACGAUACCAGAUACAUGAGGAUCCCUUGGCAGCGUCAUGAGGAUCACCCAUGUUGUACAU [Exclusion Theophylline A 2]

Response:
[140, 61.3, 41.8, 819, 150, 86.1, 26.9, 22.7]

Dear colleague, could you send me apparent KD of MS2 coat protein for each of the items below? Thanks.
1. CUCAUCCACGCGGCCGCCACUAUAUUGUGGUGUGAGUGUGACGUAUUACAUGAGGAUCACCCAUGUAGGACCGGGCGUGGAUGAG [#06 Exclusion Tryptophan B]
2. UCGCUCUGGGUGGGAUCCGGAGAUGUGGAAGGAGCGCUGGAAACAGCAGGUAGGUCGCCAACGGACAUGAGGAUCACCCAUGUAC [Same State - Arginine A (Freestyle 18)]

Response:
51.3
37.4
